Molecular target: HIV-1LAI envelope gp120 labeled with radioactive iodine (HIV-1 LAI), P03377
Assay: 125I-gp120, peptide array
Could you please classify the records by counts minus background (counts per 20 min) using these ranges: low range (below 100), mid range (100 to below 200), high range (200 or more)

Field: example entries. Status: answers known.
1. IVILSCYCIIISKLSHSK (modifications not checked) [CXCR4 213-230] | high range
2. QKINVKQIAARLLPPLYS (modifications not checked) [CCR5 21-38] | low range
3. ILPGIVILSCYCIIISKL (modifications not checked) [CXCR4 209-226] | mid range
4. LTSVSRGSSLKILSKGKR (modifications not checked) [CXCR4 317-334] | mid range
5. YSSVLILAFISLDRYLAI (modifications not checked) [CXCR4 121-138] | mid range

Class? Entry: LLLTIPDFIFANVSEADD (modifications not checked) [CXCR4 165-182]
high range

Into which bin does this binder go? SKGHQKRKALKTTVILIL (modifications not checked) [CXCR4 229-246]
mid range

GET /class?item= KLSHSKGHQKRKALKTTV (modifications not checked) [CXCR4 225-242]
mid range

Which band does TCSSHFPYSQYQFWKNFQ (modifications not checked) [CCR5 177-194] fall in?
high range

For the record SIYTSDNYTEEMGSGDYD (modifications not checked) [CXCR4 5-22] , report the class its counts minus background (counts per 20 min) corresponds to.
low range

Record LSKGKRGGHSSVSTESES (modifications not checked) [CXCR4 329-346] — which class?
mid range

Which category fits this record: GEKFRNYLLVFFQKHIAK (modifications not checked) [CCR5 301-318]
low range

Just checking, what class would you give IDSFILLEIIKQGCEFEN (modifications not checked) [CXCR4 261-278] here?
high range

Entry NRLDQAMQVTETLGMTHC (modifications not checked) [CCR5 273-290] belongs to which category?
low range

Which of the defined bands does the recorded counts minus background (counts per 20 min) of CYSGILKTLLRCRNEKKR (modifications not checked) [CCR5 213-230] sit within?
low range

Dear colleague, I would appreciate it if you could identify the bin for VSEADDRYICDRFYPNDL (modifications not checked) [CXCR4 177-194] and reply at your convenience.
mid range

Class? Entry: DLWVVVFQFQHIMVGLIL (modifications not checked) [CXCR4 193-210]
high range

Please report the category associated with NANFNKIFLPTIYSIIFL (modifications not checked) [CXCR4 33-50] , nothing else.
mid range

Textbook exercise: identify the category of the binder given here, RLHLSVADLLFVITLPFW (modifications not checked) [CXCR4 77-94] , according to its measured value.
mid range

Band for AVFALKARTVTFGVVTSV (modifications not checked) [CCR5 133-150] ?
low range

Given DAVANWYFGNFLCKAVHV (modifications not checked) [CXCR4 97-114] , name the class its counts minus background (counts per 20 min) places it in.
mid range

Each binder maps to one class by counts minus background (counts per 20 min). Which class for FIGFFSGIFFIILLTIDR (modifications not checked) [CCR5 109-126] ?
low range

Field: class (counts minus background (counts per 20 min)) — entry: GLVILVMGYQKKLRSMTD (modifications not checked) [CXCR4 57-74]
mid range
